Biological target: CD71 on SK-BR-3 cells (human, UniProt P02786 1-760)
Sequence (P02786 whole entry): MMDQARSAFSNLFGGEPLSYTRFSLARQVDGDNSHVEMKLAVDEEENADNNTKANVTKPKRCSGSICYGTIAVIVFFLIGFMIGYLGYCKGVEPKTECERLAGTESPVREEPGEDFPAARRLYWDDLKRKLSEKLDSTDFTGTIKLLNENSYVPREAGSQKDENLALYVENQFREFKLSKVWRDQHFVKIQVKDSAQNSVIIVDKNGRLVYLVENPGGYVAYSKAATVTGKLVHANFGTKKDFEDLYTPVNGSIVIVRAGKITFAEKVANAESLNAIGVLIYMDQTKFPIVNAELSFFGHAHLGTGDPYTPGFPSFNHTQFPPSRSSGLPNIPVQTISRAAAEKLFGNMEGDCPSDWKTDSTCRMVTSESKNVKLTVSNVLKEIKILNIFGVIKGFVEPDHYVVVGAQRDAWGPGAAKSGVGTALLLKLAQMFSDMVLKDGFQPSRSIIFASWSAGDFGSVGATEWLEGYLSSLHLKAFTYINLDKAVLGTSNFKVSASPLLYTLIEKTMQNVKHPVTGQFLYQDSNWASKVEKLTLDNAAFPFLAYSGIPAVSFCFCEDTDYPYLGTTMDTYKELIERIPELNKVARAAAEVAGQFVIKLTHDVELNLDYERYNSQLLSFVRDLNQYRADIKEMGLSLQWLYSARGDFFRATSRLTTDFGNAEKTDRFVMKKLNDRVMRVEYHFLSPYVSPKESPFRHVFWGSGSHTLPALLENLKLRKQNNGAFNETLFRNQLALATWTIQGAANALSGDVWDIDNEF
Assay: cell-based or functional assay
For each record, write down the corresponding IC50, SKBR-3 viability, MMAF conjugate, first unlabelled column (+/- human transferrin).
I only need the number, in nM, no unit after it.

stdin: Which value of IC50, SKBR-3 viability, MMAF conjugate, first unlabelled column (+/- human transferrin) has been reported for SEQ ID NO 296 (designed binder, FN3 domain) MLPAPKNLVVSRVTEDSARLSWTAPDAAFDSFFIGYLEPQPPGEAIILTVPGSERSYDLTGLKPGTEYNVTIQGVKGGFPSMPLSAIFTT in the records?
stdout: 29.3

stdin: Which value of IC50, SKBR-3 viability, MMAF conjugate, first unlabelled column (+/- human transferrin) has been reported for SEQ ID NO 136 (designed binder, FN3 domain) MLPAPKNLVVSRVTEDSARLSWTAPDAAFDSFFIYYIESYPAGEAIVLTVPGSERSYDLTGLKPGTEYWMGIDGVKGGRWSTPLSAIFTT in the records?
stdout: 2.32
